Cited source for all entries: PubChem BioAssay (Tox21)

method: qHTS assay to identify small molecule HDAC inhibitors (AID 1259364); further: potency means the concentration at half of the fitted maximal effect;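 further: wild-type HCT-116 cells with endogenous class I/II HDAC activity; nearly all actives have a fitted effect of over 45% in size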
condition_details: HCT-116 HDAC-Glo I/II luminescence, 2 h; series mostly up to 92.4 µM
Inconclusive results are not listed. Activity calls are given as the source filed them. The call rests on the fitted dose curve; in most records, active means well fitted inhibition curve with a large enough effect in the repeat runs; inconclusive means weak or mixed curves; inactive means flat fitted curve, though single readings scatter.

compound: [O-][n+]1ccccc1SSc1cccc[n+]1[O-]
Potency: 1.83 µM (active)
--
compound: ON=C1CCCC1
Potency: inactive
--
compound: CCC(Cl)C(Cl)C(Cl)CC(Cl)C(Cl)C(C)Cl (centres undefined)
Potency: inactive
--
compound: CCCCCCCCCCCCCCCC[N+](C)(C)CCN(Cc1ccc(OC)cc1)c1ncccn1
Potency: inactive

###

method: A CellTox Green Cytotoxicity Assay to monitor cytotoxicity in HEK293 cells - 24 hour (AID 1224875); further: nearly all actives have a fitted effect of over 45% in size
condition_details: CellTox Green fluorescence; series mostly up to 76.8 µM
Inconclusive results are not listed. Activity calls are given as the source filed them. Calls follow the shape of the dose curve; as a rule, active = well fitted activation curve with a large enough effect in the repeat runs; inconclusive = weak or mixed curves; inactive = flat fitted curve, though single readings scatter.
Outcome field: choose from active, inactive

// known answers, use as guide
molecule: Nc1ccccc1O
group: inactive
--
molecule: O=C(Oc1ccccc1)c1ccccc1C(=O)Oc1ccccc1
group: inactive
--
molecule: C[C@]12CCC(=O)C=C1CC[C@@H]1[C@@H]2[C@@H](O)C[C@@]2(C)[C@H]1CC[C@]2(O)C(=O)COC(=O)CCC(=O)O
group: inactive
--
molecule: CCCCCCCCOc1ccccc1C(=O)Nc1ccc(C(=O)OCC[N+](C)(CC)CC)cc1
group: active
--
molecule: C=CC(=O)OCCn1c(=O)n(CCOC(=O)C=C)c(=O)n(CCOC(=O)C=C)c1=O
group: active
--
molecule: C=CC(=O)OCC(CO)(COC(=O)C=C)COC(=O)C=C
group: active

Q: Dear all, I need the recorded test outcome for `Nc1nc2ccccc2n1Cc1ccc(F)cc1` , thank you.
A: inactive

Q: Please share the test call associated with `CN(C)c1ccc(SC#N)cc1` .
A: inactive

Q: Assay outcome for `CCCCCCCC(=O)[O-].CCCCCCCC(=O)[O-].[Zn+2]` : what was it?
A: inactive

Q: Per the assay record, what outcome was assigned to `Oc1cc2ccccc2c2ccccc12` ?
A: active

Q: Just curious, what result did `NC(=O)CC[C@@H]1NC(=O)[C@H](Cc2ccccc2)NC(=O)[C@H](Cc2ccc(O)cc2)NC(=O)CCSSC[C@@H](C(=O)N2CCC[C@H]2C(=O)N[C@@H](CCCN=C(N)N)C(=O)NCC(N)=O)NC(=O)[C@H](CC(N)=O)NC1=O` get here?
A: inactive

Q: For `CC[C@H](c1ccc(O)cc1)[C@@H](CC)c1ccc(O)cc1` , which call appears in the assay record?
A: inactive
